- target under test: EGFR[T790M/C797S/d746-750] (Homo sapiens, UniProt P00533, C797S/DEL746-750/T790M)
- Construct: purchased Carna Bio
- Sequence (P00533 with tags, fused parts or gaps DEL746-750/T790M/C797S limits assumed): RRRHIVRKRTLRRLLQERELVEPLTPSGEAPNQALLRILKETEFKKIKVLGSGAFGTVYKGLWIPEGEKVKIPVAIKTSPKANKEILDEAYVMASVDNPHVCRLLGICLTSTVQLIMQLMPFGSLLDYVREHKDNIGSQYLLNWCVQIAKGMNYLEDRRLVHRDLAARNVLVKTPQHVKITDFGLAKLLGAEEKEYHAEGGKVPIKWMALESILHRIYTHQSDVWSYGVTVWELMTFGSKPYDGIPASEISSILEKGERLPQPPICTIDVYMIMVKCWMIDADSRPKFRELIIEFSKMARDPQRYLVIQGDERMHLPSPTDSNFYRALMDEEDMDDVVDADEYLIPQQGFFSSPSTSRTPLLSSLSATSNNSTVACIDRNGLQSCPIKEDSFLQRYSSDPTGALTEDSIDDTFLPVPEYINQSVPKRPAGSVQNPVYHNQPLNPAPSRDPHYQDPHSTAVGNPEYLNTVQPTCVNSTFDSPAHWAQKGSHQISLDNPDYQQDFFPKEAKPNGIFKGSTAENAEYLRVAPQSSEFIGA
- assay name: Inhibition of EGFR[T790M/C797S/d746-750] biochemical enzymatic activity (HTRF)
- condition details: EGFR T790M-C797S-Del19, 1 mM ATP, 1 h, room temperature, read-out: IC50 (nM) @T790M - C797S - Del19
quantity measured: IC50 (nM)
Value expressed in nM; do not type the unit.

# annotated cases, reported IC50 shown
• C[C@@H]1CCCOc2c(cnn2C)-c2cc(cn(C)c2=O)C(=O)Nc2nc3ccc(N4CC5(CCN(C)C5)C4)cc3n2C1 [Example A42] = 4.5
• CN(C)[C@H]1CCN(c2ccc3nc4n(c3c2)C23CCC(CN(CCOc5c(cnn5C)-c5cc(cn(C)c5=O)C(=O)N4)C2)C3)C1 (single isomer, unassigned) [Example A66B] = 2.9

Input: Recorded IC50 of CN1CC2(C1)CN(c1ccc3nc4n(c3c1)C13CCC(CN(CCOc5c(cnn5C)-c5cc(cn(C)c5=O)C(=O)N4)C1)C3)C2 (single isomer, unassigned) [Example A92A] , please.
Output: 3960
